Target: CALB1
Test: pooled miR-30 sensor sort-seq; sequence = guide strand; note: reference of the scale not given here
Settings: shRNA
measurement kind: sensor-assay potency score (higher = more potent)

Any idea what its sensor-assay potency score (higher = more potent) is? The sequence is TATTTTTCCATCATCTCTTTGC
-0.281

Can you check ATTATTAATATCCAGATCCTGT next?
-0.387

Moving on to TTAGGTCTGTATACTCGGCTAA
-0.144

Queued: TTTAAGAAGAAAATTCTCCTGC
1.04

Record: TTAGATACAGTGTATCACTAGC
0.553

Try the sequence TTCTCTGACAGTAAGTTTGTTG
-0.382

What would you report for TATTCTTCTCGCACAGATCCTT ?
0.132

Lookup TTGATTGGTAAACTAAATCTGT
-0.119

And what about the sequence TAAGCTTAGAAATATTTTGTGG ?
-0.267

* * *

Assignment: determine reported sensor-assay potency score (higher = more potent) for the given sequences.
Molecular target: SOX21
Test: pooled miR-30 sensor sort-seq; sequence = guide strand
Conditions: shRNA
The reply should be a number, written without any unit.

What measured sensor-assay potency score (higher = more potent) is associated with TTGAGTCTAAAGTCGACTCAAA on SOX21?
-1.13

Now give it for TTAATCTTCGATAAAATTGCGA too.
-0.173

And TTCTATGTACATACAAACCGGG ?
-0.494

Also need ATGAACAGAGTGATAGTCGGAT , thanks.
0.0793

Then what about the sequence TAATCTTCGATAAAATTGCGAT ?
-0.606

Next record, please: TCTATGTACATACAAACCGGGC
-1.15

Would you mind doing TTAACTTTGATATTCGCTCAAA as well?
-0.537

* * *

Target: EMILIN2
Assay: pooled miR-30 sensor sort-seq; sequence = guide strand
Details: shRNA
measurement kind: sensor-assay potency score (higher = more potent)
# respond with the number and nothing more

GET /values?readout=sensor-assay potency score (higher = more potent)&item= TTTATTGACACTCCCTGTCTTT
-0.458

Then TTTCTGATCAACAAGCTGCTTC ?
0.352

TATTCCAGGAACTCTCTCCTGT , same question.
0.252

And for TTCTCCGTCACATTGATCCTTG ?
-0.623

Continue with TTCCATTACATACAAACCGAAT
-1.63

Moving on to TAGGTCTGAAGTTCACTCGATA
-0.326

// next record ATAGTCATCACACTGCTGCTGG
0.195

Another sequence: TAGAGTTTTTACAACTATCTAT
-0.151

* * *

Target: SCN10A
Experiment: pooled miR-30 sensor sort-seq; sequence = guide strand
Details: shRNA
Think of -0.4 as a floor: if sensor-assay potency score (higher = more potent) stands on it or above, it is Met; beneath it, Not met.

State whether the measured sensor-assay potency score (higher = more potent) reaches -0.4, counting equality as reaching it, for TTAACCAAAATAGTGACCGTAA
Met

Same question, TAATGCTCTAAGAACTCTGAAT this time
Not met

Follow-up entry: TTGAGCTTCACCCACATGGGGC
Not met

Entry to check: TAGTGCTGCTAGCACCTCCTGC
Not met

Lookup TTCAGCACCATAAATGTCCGGT
Met

Try TTGGTCATCAGTCTCCACCATC next.
Not met

* * *

Biological target: HSPA1L
Assay: pooled miR-30 sensor sort-seq; sequence = guide strand
Details: shRNA
measurement kind: sensor-assay potency score (higher = more potent)
// no unit string in output, number only

API: value(readout= sensor-assay potency score (higher = more potent), system= HSPA1L, query= TTGGTTGTCAGAGTAGGTGGTG )
0.316

Next sequence: TAGAGTTTTGTGATGATAGGGT
0.798

Next record, please: TTCTCTTATGATCAAACTCATC
-1.68

And what about the sequence TTCTTAGCACATTAAGTCCAGC ?
-0.826

For TTTATATTTCTCAGCATCCAGA then?
-0.719

* * *

Molecular target: DPM2
Test: pooled miR-30 sensor sort-seq; sequence = guide strand
Details: shRNA
Would you mind telling me the reported sensor-assay potency score (higher = more potent) of each entry?
Lab note: write the figure by itself, no unit.

Which measured sensor-assay potency score (higher = more potent) value corresponds to TTGGTCTTCAGCATCACATAGG ?
-0.278

Subsequent entry: TAGGTGAAGATGATCAGGCTAA
0.29

Try the sequence ATGAACAGTCCCACAAACAGGA
-0.342

Same thing, different sequence: ATACTTGTGGATGACATGCTGA
-0.113

Next entry: TCCCACAAACAGGAGCAGCAGG
-1.71

Could you do the same for TCTTGGTCTTCAGCATCACATA , please?
-1.79

* * *

Molecular target: RBM28
Test: pooled miR-30 sensor sort-seq; sequence = guide strand
Details: shRNA
measurement kind: sensor-assay potency score (higher = more potent)
Would you mind answering with just the numeric figure?

For the sequence TTGAGGTCTCGCATCACTCTAC , what sensor-assay potency score (higher = more potent) is on record?
-0.147

Now consider TTGCACAGCTTTATCCTCTTGC .
0.184

Another sequence to check: TTTTCCTAGATACCTGCTCGGA
-0.748

Proceed to TTGAAAAAGTGACATAGCCAAA
-1.59

Cool, now TCCACTAGTAGCACTCAGCAGC
-1.24

Check TTATATTGTTCGACCAGCTGGT too.
0.168

// query: TTTTGTTTGAGACTTGCACAGC
-0.43

What do we get for TTCTTCACCTTCGTCGTCTGAA ?
-0.116

And for TTTCTTGGCAACAGTCACGTTG ?
-0.362

* * *

Molecular target: APLNR
Experiment: pooled miR-30 sensor sort-seq; sequence = guide strand
Conditions: shRNA
measurement kind: sensor-assay potency score (higher = more potent)

// lookup sensor-assay potency score (higher = more potent) for TTTGAGGACAGCTCTGGGCAGA
-0.516

Now the sequence TAACAGGTCAGCATGATGGTGA
0.0238

Next sequence: TATAAGTACAACACACACAGAC
0.501

Now the sequence TTCACTTTCATAGTCCTCCAAG
-0.567

Check TAGCTGGCTGACTTCTCCCCAC too.
-0.754

Repeat with TGGAGCACTAATTATCTGCTGA
-0.596

Same question for TAGCAATGAAGATATCAGCTGA please.
0.487

// same read-out, input: TGGATTTCTCGTGCATCTGTTC
-1.45

* * *

Target: WBSCR16
Experiment: pooled miR-30 sensor sort-seq; sequence = guide strand
Details: shRNA
measurement kind: sensor-assay potency score (higher = more potent)

# lookup: sensor-assay potency score (higher = more potent) of TTTCGTAACATCCGCAGTCTTA
-0.626

Same again, this time with TATTGTAGTGACCCAGACCTGT
-0.394

And TTTTGGTCCAGCTCCAGGCGAT ?
-1.09

Same again, this time with TAGACTTCTCCTTTATCCGTCA
-0.137

Same for AATCTTTTGGTCCAGCTCCAGG
-1.82

Here is the next sequence: TTCTGGGTTGAACTCCGTCAAG
-1.57

* * *

Give sensor-assay potency score (higher = more potent) for every item shown.
Molecular target: P2RY6
Experiment: pooled miR-30 sensor sort-seq; sequence = guide strand
Settings: shRNA
A bare number is all that is needed in reply.

Name the reported sensor-assay potency score (higher = more potent) value associated with the sequence TCGCGGTAGACACAGGTGGTGG
-1.81

And what about the sequence TAGCGCTGGAAGCTGATGCAGG ?
-0.775

Please answer likewise for ATAGTTGTAGATGAGCAGGGGC
0.421

One more sequence: AGTTGCTTGAAGTTCTCGCGGT
-0.308

And the next one, TTCTGTAGGAGCTCATGTGGTC ?
-0.257

How about TTTTGTGAGCACCTTAATGTGG ?
-0.636

* * *

Biological target: SLC16A5
Experiment: pooled miR-30 sensor sort-seq; sequence = guide strand
Details: shRNA
Param threshold (-0.6) applies to sensor-assay potency score (higher = more potent); output Met when value >= threshold, Not met when value < threshold.

Determine whether this sequence has sensor-assay potency score (higher = more potent) no lower than -0.6: TTGCTTCCCAGGACCGTCTTTG
Not met

Try the sequence TTGCAGTTCAGTGAAGAAGATG
Not met

Again, but for TTGAGCAGGAGTGCCAGGCTGA
Met

Now the sequence TTGCTTGGCCTGCAGTACCGCC
Not met

Also TTGGCCTGCAGTACCGCCTTTG , if possible.
Not met

Try the sequence TTCTGCAGGGCGTAGAAGCTGC
Not met

How about this sequence: TTCAGTGAAGAAGATGCCGATA
Met
